All figures here come from the MegaScale stability set (Tsuboyama et al. 2023).

B1: EHEE_rd2_0196 (parent)
chain: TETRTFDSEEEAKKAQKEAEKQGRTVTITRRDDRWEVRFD

Variants of: B1
TEST_DETAILS: folding stability dG (cDNA display proteolysis); higher = more stable
ASSAY_SETUP: PBS, room temperature

{"MUTATION": "D32K", "UNITS_OF_MEASURE": "kcal/mol", "folding stability dG": 3.01}
{"MUTATION": "T25D", "UNITS_OF_MEASURE": "kcal/mol", "folding stability dG": 1.97}
{"MUTATION": "E20D", "UNITS_OF_MEASURE": "kcal/mol", "folding stability dG": 2}
{"MUTATION": "Q16F", "UNITS_OF_MEASURE": "kcal/mol", "folding stability dG": 2.97}
{"MUTATION": "E2L", "UNITS_OF_MEASURE": "kcal/mol", "folding stability dG": 2.98}
